Values were extracted from patent US11478460B2.

tested-system: C5aR (Homo sapiens (Human), UniProt P21730)
Sequence (P21730 whole entry): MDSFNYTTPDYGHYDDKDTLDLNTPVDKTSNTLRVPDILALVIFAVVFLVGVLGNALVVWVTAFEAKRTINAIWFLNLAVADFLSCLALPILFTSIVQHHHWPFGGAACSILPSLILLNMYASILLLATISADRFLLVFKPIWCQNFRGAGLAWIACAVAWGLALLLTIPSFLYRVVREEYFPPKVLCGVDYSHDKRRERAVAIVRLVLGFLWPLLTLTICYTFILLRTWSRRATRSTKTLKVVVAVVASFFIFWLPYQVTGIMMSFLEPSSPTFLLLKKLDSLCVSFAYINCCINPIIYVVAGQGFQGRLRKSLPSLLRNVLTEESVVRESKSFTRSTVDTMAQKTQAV
assay-comment: Chemotaxis assay using U937 cells (C5aR mediated migration)
test-context: read-out: Mig IC50
measurement-kind: IC50

CCc1cccc(CC)c1-n1nc2c(c1-c1cc(F)c(NC(N)=O)cc1F)CN(C(CC)c1ccccc1)CC2 (stereo not drawn) [Example 1.162]: ≤ 5 nM
CCc1cccc(CC)c1-n1nc2c(c1-c1cc(F)c(NC(N)=O)cc1F)CN(CC1CCCC1)C(C)(C)C2 [Example 1.043]: ≤ 5 nM
CCc1cccc(CC)c1-n1nc2c(c1-c1cc(F)c(NC(N)=O)cc1F)CN(CC1(C)COC1)C(C)(C)C2 [Example 1.010]: 5 to 50 nM
Cc1cccc(OCC(C)C)c1-n1nc2c(c1-c1ccc(NC(N)=O)c(F)c1)CN(C(C)C1CCCC1)CC2 (stereo not drawn) [Example 1.254]: ≤ 5 nM
CCc1cccc(CC)c1-n1nc2c(c1-c1cc(F)c(NC(N)=O)cc1F)CN(Cc1cc(C(F)(F)F)ccc1F)CC2 [Example 1.039]: ≤ 5 nM

What IC50 value was documented for this compound, Cc1cccc(C)c1-n1nc2c(c1-c1cc(F)c(NC(N)=O)cc1F)CN(Cc1ccc(Cl)cc1C(F)(F)F)CC2 [Example 1.061] ?
≤ 5 nM

Can you check CCc1cccc(CC)c1-n1nc2c(c1-c1cc(F)c(NC(N)=O)cc1F)CN(Cc1ccccc1)C(C)C2 (stereo not drawn) [Example 1.151] next?
≤ 5 nM

Can you check CCc1cccc(CC)c1-n1nc2c(c1-c1cc(F)c(NC(N)=O)cc1F)CN(Cc1ccc(C(F)(F)F)cc1C(F)(F)F)[C@H](C)C2 [Example 1.022] next?
≤ 5 nM

Can you check Cc1cccc(OCC(C)C)c1-n1nc2c(c1-c1cc(F)c(NC(N)=O)cc1F)CN(c1ncnc3cc[nH]c13)CC2 [Example 1.140] next?
> 500 nM

Can you check CCc1cccc(C)c1-n1nc2c(c1-c1ccc(NC(N)=O)cc1)CN(C(=O)OC(C)(C)C)CC2 [Example 1.399] next?
50 to 500 nM

Can you check Cc1cccc(OCC(C)C)c1-n1nc2c(c1-c1cc(F)c(NC(N)=O)cc1F)CN(c1ccnc(C(F)(F)F)n1)CC2 [Example 1.137] next?
≤ 5 nM

Can you check Cc1cccc(C)c1-n1nc2c(c1-c1cc(F)c(NC(N)=O)cc1F)CN(C1(C)CCOCC1)CC2 [Example 1.078] next?
50 to 500 nM

Can you check Cc1cccc(OCC(C)C)c1-n1nc2c(c1-c1ccc(N)cc1)CN(c1ccccc1C(C)C)CC2 [Example 1.480] next?
5 to 50 nM

Can you check Cc1cccc(OCC(C)C)c1-n1nc2c(c1-c1ccc(NC(N)=O)c(F)c1Cl)CN(c1ncc(C(F)(F)F)cc1F)CC2 [Example 1.222] next?
≤ 5 nM

Can you check Cc1ccc(C(C)C)cc1N1CCc2nn(-c3c(C)cccc3OCC(C)C)c(-c3ccc(NC(N)=O)cc3)c2C1 [Example 1.396] next?
5 to 50 nM
